Each entry below carries its recorded Percent Effect.
- assay-target: Aspartate--tRNA(Asp/Asn) ligase (Mycobacterium tuberculosis (strain ATCC 25618 / H37Rv)) (UniProt P9WFW3); also: in the data most compounds retested in dose-response had high values
- Sequence (P9WFW3 whole entry): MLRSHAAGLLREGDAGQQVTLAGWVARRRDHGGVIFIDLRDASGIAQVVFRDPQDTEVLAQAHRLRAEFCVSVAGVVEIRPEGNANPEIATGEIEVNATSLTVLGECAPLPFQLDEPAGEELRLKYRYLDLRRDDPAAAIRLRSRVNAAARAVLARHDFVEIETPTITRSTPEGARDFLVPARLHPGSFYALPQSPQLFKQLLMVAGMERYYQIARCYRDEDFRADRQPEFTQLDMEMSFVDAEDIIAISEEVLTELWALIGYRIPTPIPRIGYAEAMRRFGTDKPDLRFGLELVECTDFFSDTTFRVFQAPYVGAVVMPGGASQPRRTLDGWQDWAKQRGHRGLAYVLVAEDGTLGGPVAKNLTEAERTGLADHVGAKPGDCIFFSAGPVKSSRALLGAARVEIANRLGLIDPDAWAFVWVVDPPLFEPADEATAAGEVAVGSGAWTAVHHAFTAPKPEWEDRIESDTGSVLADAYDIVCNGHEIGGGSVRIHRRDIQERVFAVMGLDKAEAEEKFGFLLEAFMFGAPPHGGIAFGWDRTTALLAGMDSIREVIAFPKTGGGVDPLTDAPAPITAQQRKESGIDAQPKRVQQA
- assay-procedure: Assay for Asp RNA synthetase-1 from Mycobacterium tuberculosis
- Format: functional
- Set-up: scale not given: direction of the effect not stated beside the values
- experimental-context: 30 µM

compound: CCn1ncc2c1C(COC)CN(Cc1ccc(OC)cc1)C2 (stereo unspecified)
uom: %
Percent Effect: -4.44
//
compound: CN(C)C(=O)N1C[C@H](Oc2ccccn2)[C@H]2OCCC[C@H]21
uom: %
Percent Effect: 2.67
//
compound: Cc1cnn(CC2CCCN2C(=O)c2cnc3n[nH]c(C)c3c2)c1 (stereo unspecified)
uom: %
Percent Effect: -3.6
//
compound: Cc1cccc(-n2ncc(C(=O)N3CCn4c(C)nnc4C3)c2C)c1
uom: %
Percent Effect: 3.68
//
compound: O=C(NCCc1ccccc1)C1CCCN(c2ccc3nncn3n2)C1 (stereo unspecified)
uom: %
Percent Effect: -2.08
//
compound: Clc1ccccc1C1(c2ccnc(-c3ncccn3)n2)CCNCC1
uom: %
Percent Effect: 8.32

---

- assay-target: Aspartate--tRNA(Asp/Asn) ligase (Mycobacterium tuberculosis (strain ATCC 25618 / H37Rv)) (UniProt P9WFW3); also: in the data most compounds retested in dose-response had high values
- assay-procedure: Assay for Asp RNA synthetase-1 from Mycobacterium tuberculosis
- Assay type: functional
- Set-up: scale not given: direction of the effect not stated beside the values
- experimental-context: 30 µM

molecule: N#Cc1ccccc1C(=O)N1CCC2(CC(=O)NC2=O)C1 (centres undefined)
Percent Effect (%): -0.613

molecule: O=C(c1ccc[nH]1)N1C[C@H](OCc2cccnc2)[C@H]2COC[C@H]21
Percent Effect (%): 2.69

molecule: COc1ccc(F)cc1CN1CCCC(c2cc(C(N)=O)[nH]n2)C1 (centres undefined)
Percent Effect (%): -5.13

molecule: CCN1CCN(CC(O)c2ccc(OC(F)(F)F)cc2)CC1 (centres undefined)
Percent Effect (%): 5.22

molecule: Cc1cc(N2CCC(c3nnc(CN(C)C)n3C3CC3)CC2)ccn1
Percent Effect (%): 5.21

molecule: Cc1nc2ccnn2c(C)c1CCC(=O)N1CCC(C(N)=O)CC1
Percent Effect (%): 0

molecule: CC(C)CCN1Cc2c(C(=O)O)ncn2-c2ccccc2S1(=O)=O
Percent Effect (%): -0.474

molecule: COc1ccc(C2(NC(=O)CCn3cncn3)CCCCC2)cc1
Percent Effect (%): -7.19

molecule: CNS(=O)(=O)c1cccc(CNc2nccc(C(F)(F)F)n2)c1
Percent Effect (%): 3.75

molecule: CCS(=O)(=O)N1CCC(c2nnc(CN3CCCC3)n2C2CC2)CC1
Percent Effect (%): -0.379

molecule: O=C(Nc1ccccn1)N(CCO)Cc1ccsc1
Percent Effect (%): -3.79

molecule: CC(C)(C)C(=O)NCCn1ccc(-c2ccncc2)n1
Percent Effect (%): -3.08

molecule: O=C(NCc1nnc2ccccn12)N1CCc2sccc2C1
Percent Effect (%): -2.69

molecule: Cc1cnc(CN(C)C2CCN(CCc3ccccn3)CC2)cn1
Percent Effect (%): 4.34

molecule: Cn1nccc1-c1ccc2nc(C3CCN(CCO)CC3)nn2c1
Percent Effect (%): -1.83

molecule: CCN(CC)c1ccc(NS(=O)(=O)c2cnn(C)c2)cn1
Percent Effect (%): 2.14

molecule: CCc1cccc(N2CCC(NC(=O)c3ccc(=O)[nH]n3)CC2)c1
Percent Effect (%): 3.83

molecule: Cc1ccccc1C(=O)NCc1ccc(N2CCNC(=O)C2)cc1
Percent Effect (%): 0.212

molecule: CCNC(=O)[C@@H]1C[C@H](NC(=O)c2ccccc2C#N)CN1CCCSC
Percent Effect (%): -0.866

molecule: c1cc(COC[C@@H]2CCC[C@@]23CNCCO3)ccn1
Percent Effect (%): 4.08

molecule: CC(=O)N1[C@H](Cn2cncn2)C[C@@H]2CN(c3ccc(C)nn3)CC[C@@H]21
Percent Effect (%): -1.81

molecule: Cc1nccn1C1CCCN(C(=O)c2cc(O)nc3ccccc23)C1 (centres undefined)
Percent Effect (%): 1.77

molecule: O=C(NC(CO)CO)c1coc(COc2cccc(F)c2)n1
Percent Effect (%): -1.14

molecule: O=C(NCc1cnc2n1CCN(Cc1ccsc1)CC2)C1CCC1
Percent Effect (%): 3.57

---

- assay-target: Shiga toxin 2 (Escherichia coli O157:H7) (UniProt P09385+P09386)
- assay-procedure: E. coli 0.157:H7 Shiga Toxin SOP - stx2 screening assay
- Type: functional
- Design: scale not given: direction of the effect not stated beside the values
- experimental-context: 30 µM

compound: Cc1ncc(CN(C)CC2CCCN2c2cccnn2)s1 (stereo not drawn)
Percent Effect / %: 9.48
--
compound: CSCC(C)(O)CNC(=O)c1ccc(Br)cc1C (stereo not drawn)
Percent Effect / %: -16
--
compound: Cc1nn(C)c(C)c1C1CCCN1C(=O)c1ccc(CN(C)C)cc1 (stereo not drawn)
Percent Effect / %: -14
--
compound: CN(CC1CCCO1)C1CCN(CCc2ccccn2)CC1 (stereo not drawn)
Percent Effect / %: -6.44
--
compound: NC(=O)c1ccc2c(c1)nc1n2CCN(Cc2ccco2)C1
Percent Effect / %: -31.5
--
compound: Cc1nc(CN2CCOC(CN(C)c3cccnn3)C2)cs1 (stereo not drawn)
Percent Effect / %: 7.32
--
compound: CCn1ccnc1CNCC1CCCN1c1cccnn1 (stereo not drawn)
Percent Effect / %: 6.68
--
compound: CN(Cc1cnn(C)c1)C(=O)NC1CCN(c2ncccn2)CC1
Percent Effect / %: 10.9
--
compound: CCc1nnc2n1CCN(C(=O)c1cc3cc(F)ccc3[nH]1)C2
Percent Effect / %: -31.4
--
compound: Cc1nc(N2CCCC2)ncc1-c1cc(O)nc(N2CCCC2)n1
Percent Effect / %: -0.674
--
compound: CC(C)c1n[nH]c(C(=O)Nc2ccnn2C(C)C)c1Br
Percent Effect / %: -15.3
--
compound: CCc1ccc(CCC(=O)N2CCOCC2c2ncon2)cc1 (stereo not drawn)
Percent Effect / %: 20.7
--
compound: Cc1nc(C)n(CC2CCCN(c3ncnc4sccc34)C2)n1 (stereo not drawn)
Percent Effect / %: 21.2
--
compound: O=S(=O)(c1ccccc1)N1CCCN(CCCn2ccnc2)CC1
Percent Effect / %: -12.6
--
compound: CCCc1nc(C(C)(C)NC(=O)C2CC(=O)N(CC3CC3)C2)no1 (stereo not drawn)
Percent Effect / %: 20
--
compound: O=C([C@@H]1CC[C@@H]2[C@@H](CCN2Cc2cccc(F)c2)O1)N1CCCCO1
Percent Effect / %: -15
--
compound: Cc1cc(C(=O)NCc2ccnc(N3CCN(C)CC3)c2)c(C)s1
Percent Effect / %: -30.4
--
compound: Cc1cc(C)n(CC2CCCN2CCc2ccncc2)n1 (stereo not drawn)
Percent Effect / %: -7.41
--
compound: c1ccc(-n2ncc(CNCC3CCCN3c3cccnn3)n2)cc1 (stereo not drawn)
Percent Effect / %: 8.59
--
compound: CC[C@H](C)Nc1nccc(-c2cnc3sc(C)c(C)n3c2=O)n1
Percent Effect / %: -27.1
--
compound: COc1ccc(NC(=O)C2CCOC2)c(N2CCN(C(C)=O)CC2)n1 (stereo not drawn)
Percent Effect / %: -6.14
--
compound: O=C(Cc1ccccn1)N1CCN(C(=O)c2cccc3[nH]ncc23)CC1
Percent Effect / %: 1.83
--
compound: CC(C)n1ccnc1CN1CCCN(C(=O)c2cc(Cl)c[nH]2)CC1
Percent Effect / %: -53.1
--
compound: CCN1CCC(CNC(=O)C2(c3cccc(C)c3)CC2)C1 (stereo not drawn)
Percent Effect / %: 1.34
--
compound: O=C(NCc1csc(Br)c1)c1ccc(=O)[nH]n1
Percent Effect / %: -13.6
--
compound: Cc1ccc(S(=O)(=O)N2CCOc3ccccc32)cc1C(N)=O
Percent Effect / %: -48.3
--
compound: O=S(=O)(c1ccccc1)N1CCC2(CCCN2CC2CCCC2)C1 (stereo not drawn)
Percent Effect / %: 9.27
--
compound: CCOc1ccc(Cl)cc1C1CCCN1 (stereo not drawn)
Percent Effect / %: 5.67
--
compound: Cc1cc(C)n(-c2ccc(CNCc3ccc(OC(C)C)cc3)cn2)n1
Percent Effect / %: 29.5
--
compound: NC(=O)C1CCN(C(=O)c2cccc(OCc3cscn3)c2)CC1
Percent Effect / %: -35.2
--
compound: Cc1[nH]c2ccccc2c1-c1ccnc(NCCN2CCOCC2)n1
Percent Effect / %: -44.9
--
compound: Cc1ncc2c(n1)CN(Cc1nc3ccccc3o1)CC2
Percent Effect / %: -2.56
--
compound: Cc1cccc(OCCC(=O)N2CCCN(C(N)=O)CC2)c1C
Percent Effect / %: 7.91
--
compound: O=C(NCC1OCCc2cn(CC3CC3)nc21)c1ccsc1 (stereo not drawn)
Percent Effect / %: -12.1
--
compound: O=C(NCc1ccco1)[C@H]1C[C@H]2OCC[C@H]2N(C(=O)c2ccco2)C1
Percent Effect / %: 6.55
--
compound: CN(C)C(=O)CN1C(=O)CCC12CCN(Cc1ccc(F)cc1)CC2
Percent Effect / %: -5.2
--
compound: Cc1cc2n(n1)CC(CNC1CCN(Cc3ccccc3C)CC1)CN2 (stereo not drawn)
Percent Effect / %: -38.1
--
compound: Cc1c(O)oc(-c2ccc(Br)cc2)nc1=O
Percent Effect / %: -45.4
--
compound: CC(c1ccc(Cl)cc1)N1CCN(CCS(C)(=O)=O)CC1 (stereo not drawn)
Percent Effect / %: 1.09
--
compound: CN(CCc1ccccn1)S(=O)(=O)N1CCCC1c1ccco1 (stereo not drawn)
Percent Effect / %: 32.1
--
compound: CCn1nc2c(cc1=O)CN(Cc1nc(-c3ccccn3)no1)CC2
Percent Effect / %: -43.5
--
compound: CCN(CC1CCOC1)C(=O)Nc1ccc(OC)nc1 (stereo not drawn)
Percent Effect / %: -156
--
compound: CCc1nc(CN2CCN(C(=O)C3CCCCC3)CC2)cs1
Percent Effect / %: 1.6
--
compound: CCn1cnnc1CNC(=O)N1CCC(Cc2cccnc2)CC1
Percent Effect / %: 2.96
--
compound: Cc1cnn(CCC(=O)N2CCN(c3ncccc3Cl)CC2)c1
Percent Effect / %: 13.3
--
compound: COc1ccc(CN2CC[C@@H](O)[C@@H]2Cc2ccccc2)cc1
Percent Effect / %: -47
--
compound: CC(=O)Nc1nc(CN2CCn3c(nnc3C3CC3)C2)cs1
Percent Effect / %: -26.2
--
compound: CC1CCCN(CCNC(=O)c2ccn(-c3ccccc3)n2)C1 (stereo not drawn)
Percent Effect / %: -20.3
